Taken from patent US20230118142A1.

# Experimental details: In vivo clearance of ligand
# Applied conditions: male, C57BL/6, mouse, plasma, 0.5 mg; mice, intravenous; read-out: plasma t1/2 of ligand
Readout kind: half-life

• O=P(O)(OCCCCCCCCOP(=O)(O)O[C@@H]1CN2CCC1CC2)O[C@@H]1CN2CCC1CC2 = ~15 min

----------
# Measured target: CRP (Homo sapiens)
# Sequence (P02741 19-224): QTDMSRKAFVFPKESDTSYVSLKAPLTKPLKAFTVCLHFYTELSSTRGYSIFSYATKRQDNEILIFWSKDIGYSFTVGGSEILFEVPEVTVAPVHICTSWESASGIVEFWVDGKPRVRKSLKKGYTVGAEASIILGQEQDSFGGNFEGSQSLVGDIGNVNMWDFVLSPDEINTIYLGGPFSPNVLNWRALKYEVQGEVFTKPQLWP
# Experimental details: Size exclusion chromatography of CRP/ligand cross linking
# Assay type: binding
# Design: The final concentrations were 0.73 μM native pentameric CRP; from tissue
# Applied conditions: CRP/ligand complex re-chromatographed in absence of free ligand
Readout kind: Stable to rechromatography

- C[N+](C)(C)CCOP(=O)(O)OCCCCCCCCOP(=O)(O)OCC[N+](C)(C)C [BPC8, 1,8-bis(phosphocholine)-octane, reference compound]: No
- O=C(O)C(NC(=O)[C@H]1CC[C@H](C(=O)NC(C(=O)O)[C@H]2CN3CCC2CC3)CC1)[C@H]1CN2CCC1CC2 (stereo partly drawn): Yes
- O=C(CC(c1ccccc1)C(CC(=O)NC(C(=O)O)[C@H]1CN2CCC1CC2)c1ccccc1)NC(C(=O)O)[C@H]1CN2CCC1CC2 (single isomer, unassigned) [P2B-D peak1]: Yes
- O=C(CCC(=O)NC(C(=O)O)[C@H]1CN2CCC1CC2)NC(C(=O)O)[C@H]1CN2CCC1CC2 (stereo partly drawn): Yes
- O=C(NC(C(=O)O)[C@H]1CN2CCC1CC2)c1ccc(C(=O)NC(C(=O)O)[C@H]2CN3CCC2CC3)cc1 (stereo partly drawn): Yes

----------
# Measured target: CRP (Homo sapiens, UniProt P02741)
# Experimental details: Roche immunoturbidimetric assay: pure CRP
# Format: binding
# Set-up: The final concentrations were 0.73 μM native pentameric CRP; from tissue
# Applied conditions: pure CRP in TC buffer; read-out: IC50 (μM), SD; inhibition of Roche CRP immunoreactivity
Listing of entries alongside the reported IC50.
Readout kind: IC50

* O=C(CC(=O)NC(C(=O)O)[C@H]1CN2CCC1CC2)NC(C(=O)O)[C@H]1CN2CCC1CC2 (stereo partly drawn) [Compound P1d-1] | > 400 µM
* O=C(CCC(=O)NC(C(=O)O)[C@H]1CN2CCC1CC2)NC(C(=O)O)[C@H]1CN2CCC1CC2 (stereo partly drawn) [Compound P1d-2] | < 2 µM
* O=C(CCCCCC(=O)NC(C(=O)O)[C@H]1CN2CCC1CC2)NC(C(=O)O)[C@H]1CN2CCC1CC2 (stereo partly drawn) [Compound P1d-5] | > 400 µM
